IC50 for Lysine-specific histone demethylase 1A (Homo sapiens, UniProt O60341), merged from several publications.
parameter: IC50

compound: COc1ccc(-c2c(-c3ccc(C#N)cc3)cc(C(=O)N3CCC[C@@H](N)C3)n2CCO)cc1
experimental-target: Lysine-specific histone demethylase 1A (Homo sapiens, UniProt O60341)
observed: < 100 nM
--
compound: Cn1cc2cc(-n3nc(NC[C@@H]4CCCNC4)cc3-c3ccc(C#N)c(F)c3)ccc2n1 (single isomer, unassigned)
experimental-target: Lysine-specific histone demethylase 1A (Homo sapiens, UniProt O60341)
observed: 1000 to 10000 nM
--
compound: Cn1ncc2cc(-c3ncc(N4CCC(N)CC4)nc3-c3ccc(C#N)c(F)c3)ccc21
experimental-target: Lysine-specific histone demethylase 1A (Homo sapiens, UniProt O60341)
observed: < 100 nM
--
compound: Cc1c(N)cccc1-c1cn(C2CCC(O)C2)c2ccc(C#N)cc12 (racemic)
experimental-target: Lysine-specific histone demethylase 1A (Homo sapiens, UniProt O60341)
observed: 24 nM
--
compound: CNC1CCN(c2cnc(-c3ccc4c(c3)ncn4C(C)C)c(-c3ccc(C#N)c(F)c3)n2)CC1
experimental-target: Lysine-specific histone demethylase 1A (Homo sapiens, UniProt O60341)
observed: < 100 nM
--
compound: N#Cc1ccc(-c2cn(CC3CCOCC3)c(=O)c(N3CCC(N)CC3)n2)cc1F
experimental-target: Lysine-specific histone demethylase 1A (Homo sapiens, UniProt O60341)
observed: < 100 nM
--
compound: N#Cc1ccc(-c2cc(NC[C@H]3CCC[C@H](N)C3)nn2-c2ccc(N3CCS(=O)(=O)CC3)cc2)cc1F
experimental-target: Lysine-specific histone demethylase 1A (Homo sapiens, UniProt O60341)
observed: < 500 nM
